# credit: patent US9498463B2

Test system: Human histocytic lymphoma cell U937
assaySummary: cells
condition: U-937, read-out: IC50 (50% inhibition concentration), U937
measurementName: IC50 (µg/mL)
Give the value, in units of µg/mL, as a plain number.

| molecule | experimentalTarget | IC50, µg/mL |
| --- | --- | --- |
| CC(C)=CCc1c2c(c(O)c3c1O[C@]14C(=C[C@@H]5CC1C(C)(C)OC4(C/C=C(/C)C(=O)O)C5=O)C3=O)C=C[C@](C)(CCC(O)C(C)(C)O)O2 (stereo partly drawn) | Human histocytic lymphoma cell U937 | 0.11 |
| CC(C)=CCC[C@@]1(C)C=Cc2c(O)c3c(c(CC(O)C(C)(C)O)c2O1)O[C@]12C(=C[C@@H]4CC1C(C)(C)OC2(C/C=C(/C)C(=O)O)C4=O)C3=O (stereo partly drawn) | Human histocytic lymphoma cell U937 | 0.29 |
| CC(C)=CCC[C@]1(C)C=Cc2c(O)c3c(c(CC(O)C(C)(C)O)c2O1)O[C@]12C(=C[C@@H]4CC1C(C)(C)OC2(C/C=C(/C)C(=O)O)C4=O)C3=O (stereo partly drawn) | Human histocytic lymphoma cell U937 | 0.22 |
| CC(C)=CCC[C@]1(C)C=Cc2c(O)c3c(c(CC=C(C)C)c2O1)O[C@]12C(=C[C@@H]4CC1C(C)(C)O[C@]2(C/C=C(/CO)C(=O)O)C4=O)C3=O [Gh-1601-A, 30-hydroxygambogic acid] | Human histocytic lymphoma cell U937 | 0.09 |
| CC(C)=CCc1c2c(c(O)c3c1O[C@]14C(=C[C@@H]5CC1C(C)(C)OC4(C/C=C(/C)C(=O)O)C5=O)C3=O)C=C[C@@](C)(CCC(O)C(C)(C)O)O2 (stereo partly drawn) | Human histocytic lymphoma cell U937 | 0.11 |

# IC50 lookup, item CC(C)=CCC[C@@]1(C)Oc2c(c(O)c3c(c2CC=C(C)C)O[C@]24C(=C[C@@H]5CC2C(C)(C)OC4(C/C=C(/C)C(=O)O)C5=O)C3=O)C[C@H]1O (stereo in doubt)
0.18
